Biological target: humane Tyrosinase (Homo sapiens)
Sequence (P14679 19-529): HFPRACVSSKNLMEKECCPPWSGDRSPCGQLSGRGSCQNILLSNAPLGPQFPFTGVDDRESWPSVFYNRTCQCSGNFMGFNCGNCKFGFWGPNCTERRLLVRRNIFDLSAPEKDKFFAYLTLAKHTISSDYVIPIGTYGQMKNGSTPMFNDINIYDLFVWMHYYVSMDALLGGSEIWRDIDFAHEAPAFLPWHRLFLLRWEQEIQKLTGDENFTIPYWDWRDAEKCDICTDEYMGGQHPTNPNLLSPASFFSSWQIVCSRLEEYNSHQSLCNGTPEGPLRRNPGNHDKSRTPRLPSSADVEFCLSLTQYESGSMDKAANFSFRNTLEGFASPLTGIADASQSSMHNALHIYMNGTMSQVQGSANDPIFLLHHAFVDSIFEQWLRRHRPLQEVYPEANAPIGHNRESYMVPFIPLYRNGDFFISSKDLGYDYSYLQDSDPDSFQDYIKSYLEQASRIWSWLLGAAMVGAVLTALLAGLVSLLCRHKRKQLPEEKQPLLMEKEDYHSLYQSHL
Experiment: Enzyme test: conversion of L-DOPA to L-Dopachinon by human tyrosinase, MBTH detection, absorption at 490 nm
Format: biochemical
Conditions: Konzentration 10 µg/mL; substrate L-DOPA
quantity: Inhibition (% der Kontrolle)

CCN1CCN(C(=O)Nc2nc(-c3ccc(O)cc3O)cs2)CC1    94
CCN1CCN(c2nc(-c3ccc(O)cc3O)cs2)CC1    91
O=C(Nc1nc(-c2ccc(O)cc2O)cs1)N1CCCCC1    97
O=C(Nc1nc(-c2ccc(O)cc2O)cs1)N1CCOCC1    97
Oc1ccc(-c2csc(N3CCOCC3)n2)c(O)c1    91
Oc1ccc(-c2csc(N3CCCCC3)n2)c(O)c1    82
O=C(Nc1nc(-c2ccc(O)cc2O)cs1)N1CCNCC1    94
Oc1ccc(-c2csc(N3CCNCC3)n2)c(O)c1    93
